Conditions: molarity of gas in liquid phase; 0.1 MPa partial pressure; solvent Tetraglyme containing 7.8 w.% PPh3; 20 °C
Listed below: Ci values for each entry.

COMPOUND | Ci
[HH] [Hydrogen] | 2.2 mmol/L
C#C [Acetylene] | 577.0 mmol/L
C=C [Ethylene] | 60.0 mmol/L
[C-]#[O+] [Carbon monoxide] | 4.9 mmol/L

* * *

Listed below: Xi x 10^4 values for each entry.
Conditions: mol fraction of gas in liquid phase; 0.1 MPa partial pressure; solvent Tetraglyme containing 7.8 w.% PPh3; 20 °C

COMPOUND | Xi x 10^4
[HH] [Hydrogen] | 5.1
C=C [Ethylene] | 134.0
[C-]#[O+] [Carbon monoxide] | 11.3
C#C [Acetylene] | 1224.0

* * *

Conditions: mol fraction; 0.1 MPa partial pressure; solvent Tetraglyme containing 7.8 w.% PPh3; 100 °C

MOLECULE | Xi x 10^4
C=C | 76.0
[C-]#[O+] [Carbon monoxide] | 34.6
C#C | 242.0
[HH] [Hydrogen] | 7.3

* * *

Settings: molarity; 0.1 MPa partial pressure; solvent Tetraglyme containing 7.8 w.% PPh3; 100 °C
READOUT NAME: Ci (mmol/L)

COMPOUND | READOUT NAME | RESULT NUMBER
[C-]#[O+] [Carbon monoxide] | Ci | 14.2
[HH] [Hydrogen] | Ci | 3.0
C#C [Acetylene] | Ci | 103.0
C=C [Ethylene] | Ci | 32.6
